Data provenance: BigSolDB 2.1

details: in ethyl acetate, 318.15 K
parameter: solubility (mole fraction)

               entry_smiles     value
0  CC[C@H](C)[C@H](N)C(=O)O  0.000803

---

conditions: in ethanol, 293.15 K
parameter: solubility (mole fraction)

In [3]: df
Out[3]:
               entry_smiles     value
0  CC[C@H](C)[C@H](N)C(=O)O  0.000285

---

settings: in isobutanol, 303.15 K
parameter: solubility (mole fraction)

In [3]: df
Out[3]:
               entry_smiles                   parameter    value
0  CC[C@H](C)[C@H](N)C(=O)O  solubility (mole fraction)  0.00216

---

conditions: in 2-butanone, 323.15 K
parameter: solubility (mole fraction)

In [3]: df
Out[3]:
               entry_smiles    value
0  CC[C@H](C)[C@H](N)C(=O)O  0.00145

---

conditions: in 2-butanone, 308.15 K
parameter: solubility (mole fraction)

               entry_smiles     value
0  CC[C@H](C)[C@H](N)C(=O)O  0.000819

---

conditions: in ethyl acetate, 323.15 K
parameter: solubility (mole fraction)

               entry_smiles                   parameter     value
0  CC[C@H](C)[C@H](N)C(=O)O  solubility (mole fraction)  0.000891

---

conditions: in acetone, 318.15 K
parameter: solubility (mole fraction)

>>> df
               entry_smiles     value
0  CC[C@H](C)[C@H](N)C(=O)O  8.28e-05

---

conditions: in ethyl acetate, 298.15 K
parameter: solubility (mole fraction)

               entry_smiles     value
0  CC[C@H](C)[C@H](N)C(=O)O  0.000544

---

settings: in acetonitrile, 318.15 K
parameter: solubility (mole fraction)

               entry_smiles                   parameter     value
0  CC[C@H](C)[C@H](N)C(=O)O  solubility (mole fraction)  0.000582

---

conditions: in ethanol, 298.15 K
parameter: solubility (mole fraction)

               entry_smiles     value
0  CC[C@H](C)[C@H](N)C(=O)O  0.000363

---

conditions: in isobutanol, 313.15 K
parameter: solubility (mole fraction)

>>> df
               entry_smiles    value
0  CC[C@H](C)[C@H](N)C(=O)O  0.00298

---

conditions: in n-propanol, 293.15 K
parameter: solubility (mole fraction)

In [3]: df
Out[3]:
               entry_smiles                   parameter     value
0  CC[C@H](C)[C@H](N)C(=O)O  solubility (mole fraction)  0.000268

---

conditions: in acetone, 308.15 K
parameter: solubility (mole fraction)

               entry_smiles                   parameter     value
0  CC[C@H](C)[C@H](N)C(=O)O  solubility (mole fraction)  4.37e-05

---

conditions: in isobutanol, 318.15 K
parameter: solubility (mole fraction)

               entry_smiles    value
0  CC[C@H](C)[C@H](N)C(=O)O  0.00346

---

conditions: in 1,4-dioxane, 298.15 K
parameter: solubility (mole fraction)

               entry_smiles                   parameter    value
0  CC[C@H](C)[C@H](N)C(=O)O  solubility (mole fraction)  0.00146

---

settings: in 1,4-dioxane, 328.15 K
parameter: solubility (mole fraction)

>>> df
               entry_smiles                   parameter    value
0  CC[C@H](C)[C@H](N)C(=O)O  solubility (mole fraction)  0.00339

---

settings: in 2-butanone, 283.15 K
parameter: solubility (mole fraction)

               entry_smiles     value
0  CC[C@H](C)[C@H](N)C(=O)O  0.000223

---

settings: in acetone, 293.15 K
parameter: solubility (mole fraction)

In [3]: df
Out[3]:
               entry_smiles     value
0  CC[C@H](C)[C@H](N)C(=O)O  1.82e-05

---

settings: in acetonitrile, 303.15 K
parameter: solubility (mole fraction)

>>> print(df.to_string())
               entry_smiles     value
0  CC[C@H](C)[C@H](N)C(=O)O  0.000374

---

details: in ethanol, 308.15 K
parameter: solubility (mole fraction)

>>> print(df.to_string())
               entry_smiles                   parameter     value
0  CC[C@H](C)[C@H](N)C(=O)O  solubility (mole fraction)  0.000716

---

settings: in isobutanol, 288.15 K
parameter: solubility (mole fraction)

               entry_smiles                   parameter    value
0  CC[C@H](C)[C@H](N)C(=O)O  solubility (mole fraction)  0.00125

---

conditions: in ethanol, 303.15 K
parameter: solubility (mole fraction)

               entry_smiles                   parameter     value
0  CC[C@H](C)[C@H](N)C(=O)O  solubility (mole fraction)  0.000532

---

conditions: in methyl acetate, 283.15 K
parameter: solubility (mole fraction)

>>> df
               entry_smiles                   parameter    value
0  CC[C@H](C)[C@H](N)C(=O)O  solubility (mole fraction)  0.00174

---

details: in ethyl acetate, 308.15 K
parameter: solubility (mole fraction)

In [3]: df
Out[3]:
               entry_smiles     value
0  CC[C@H](C)[C@H](N)C(=O)O  0.000656

---

conditions: in methanol, 303.15 K
parameter: solubility (mole fraction)

In [3]: df
Out[3]:
               entry_smiles     value
0  CC[C@H](C)[C@H](N)C(=O)O  0.000935

---

details: in isopropanol, 283.15 K
parameter: solubility (mole fraction)

In [3]: df
Out[3]:
               entry_smiles                   parameter    value
0  CC[C@H](C)[C@H](N)C(=O)O  solubility (mole fraction)  0.00147

---

details: in isobutanol, 308.15 K
parameter: solubility (mole fraction)

               entry_smiles                   parameter    value
0  CC[C@H](C)[C@H](N)C(=O)O  solubility (mole fraction)  0.00246

---

conditions: in methanol, 293.15 K
parameter: solubility (mole fraction)

In [3]: df
Out[3]:
               entry_smiles                   parameter     value
0  CC[C@H](C)[C@H](N)C(=O)O  solubility (mole fraction)  0.000848

---

details: in ethanol, 313.15 K
parameter: solubility (mole fraction)

               entry_smiles     value
0  CC[C@H](C)[C@H](N)C(=O)O  0.000881

---

conditions: in acetonitrile, 298.15 K
parameter: solubility (mole fraction)

>>> print(df.to_string())
               entry_smiles     value
0  CC[C@H](C)[C@H](N)C(=O)O  0.000303

---

details: in methyl acetate, 288.15 K
parameter: solubility (mole fraction)

>>> print(df.to_string())
               entry_smiles    value
0  CC[C@H](C)[C@H](N)C(=O)O  0.00194

---

conditions: in methanol, 283.15 K
parameter: solubility (mole fraction)

>>> print(df.to_string())
               entry_smiles     value
0  CC[C@H](C)[C@H](N)C(=O)O  0.000793

---

details: in 2-butanone, 298.15 K
parameter: solubility (mole fraction)

>>> print(df.to_string())
               entry_smiles                   parameter     value
0  CC[C@H](C)[C@H](N)C(=O)O  solubility (mole fraction)  0.000538

---

conditions: in ethanol, 283.15 K
parameter: solubility (mole fraction)

In [3]: df
Out[3]:
               entry_smiles                   parameter     value
0  CC[C@H](C)[C@H](N)C(=O)O  solubility (mole fraction)  0.000199

---

conditions: in n-butanol, 293.15 K
parameter: solubility (mole fraction)

               entry_smiles                   parameter     value
0  CC[C@H](C)[C@H](N)C(=O)O  solubility (mole fraction)  0.000221

---

details: in 1,4-dioxane, 318.15 K
parameter: solubility (mole fraction)

>>> print(df.to_string())
               entry_smiles    value
0  CC[C@H](C)[C@H](N)C(=O)O  0.00258
